Experiment: soluble on expression in E. coli; label from the status in PepcDB or PDB records

CHAIN SEQUENCE	soluble on expression in E. coli
MGSDKIHHHHHHMKVVTFGEIMLRLSPPDHKRIFQTDSFDVTYGGAEANVAAFLAQMGLDAYFVTKLPNNPLGDAAAGHLRKFGVKTDYIARGGNRIGIYFLEIGASQRPSKVVYDRAHSAISEAKREDFDWEKILDGARWFHFSGITPPLGKELPLILEDALKVANEKGVTVSCDLNYRARLWTKEEAQKVMIPFMEYVDVLIANEEDIEKVLGISVEGLDLKTGKLNREAYAKIAEEVTRKYNFKTVGITLRESISATVNYWSVMVFENGQPHFSNRYEIHIVDRVGAGDSFAGALIYGSLMGFDSQKKAEFAAAASCLKHTIPGDFVVLSIEEIEKLASGATSGRVER	soluble
MSHHHHHHSMSKNILDMRNTVQIGIVVRDIEESLQNYAEFFGVEKPQWFWTDDYSKAHTKFNGRPTKARAKLAFFELGPLQLELIEPDENPSTWREFLDKNGEGIHHIAFVVKDMDRKVEELYRKGMKVIQKGDFEGGRYAYIDTLRALKVMIELLENY	soluble
MLKYNVRGENIEVTDALRSYVEKRLNKLEKYFELNQDVIAHVNLRVYRDHSAKVEVTIPLPYLVLRAEETTDDMYRSIDFVSEKLERQIRKYKTRVNRKSREKGLQDFFVEQPEEEKKPSEFDIVRNKRVSLKPMDPEEAILQMDMLEHDFFVFEDAETNGTSVVYRRNDGRYGLIETNELEHHHHHH	soluble

###

Assay: soluble on expression in E. coli; label from the status in PepcDB or PDB records
PARAMETER: soluble on expression in E. coli

CHAIN SEQUENCE	PARAMETER	REPORTED MEASUREMENT
EALLNDSALQSVPIVVPSRGSKLLGATLKTELTQEEVQQTLVDGFFPQVAITDHPVQRNRGALTQMGLPYAQDAGITRHIAAFLSKQAHAQSGGESAQAQDFNPFANMPGMPGSDAAQSADFIKPTAILFNGGVLKSKLLATRLEDTINKWLIEADAEMAKRLTGVDLDLAVASGAAYYGSVRRGQGVRIRGGIASAYYVGIESAMPAIPGMAPPMEALCVAPFGMEEGSSVDVPSQEFGLIIGQPVNFQFFGSTVRRDDLAGTHLDYWAPEELEELPEIQVTLPVSEGRREGEVVPVTLASRVTELGTLYLEAIAADNGQKWHVEFDVREDAKSDSNEEQ	soluble on expression in E. coli	not soluble
MLEKGGIRVIDEKTLEIIVREVLTNLTSDKGTQNQQKTASSSLPKLDPKRDYPLAKNKPELAKSITGKTINEITLQAVREGKVLPDDLKISPETLLAQAEIAEAAGRKQLANNFRRAAELTKVPDKRILEIYNALRPYRSTKEELLAIADELDNAYGAKVCAAFVREAAEVYERRGRLKGME	soluble on expression in E. coli	not soluble

###

Assay: soluble on expression in E. coli; label from the status in PepcDB or PDB records

CHAIN SEQUENCE	soluble on expression in E. coli
MGHHHHHHSHMSEPGKGDDCLELESSMAESRLRAPDLGVSRCLGKCQKNSPGARKHPFSGKSFYLDLPAGKNLQFLTGAIQQLGGVIEGFLSKEVSYIVSSRREVKAESSGKSHRGCPSPSPSEVRVETSAMVDPKGSHPRPSRKPVDSVPLSRGKELLQKAIRNQVSWGKMGQSRWSPA	not soluble
MIASLDELYHSELFFLPVMDENARLVGLEIIATFAAEDGAVRMPTELVAPRLSVEEQYCLFVEKLALLETCQHFFIQHKLIAWLNLPPAISDLLLLDSELFSRAARFPFLELAINENYPGLNQGKNNETLANLAMHFPLMLANFGAGEASTKAIFDGLFKRVMLDKNFIQQRAEMISFEPFMHAIVAQISSSCESLMIAGIDTEAMFARAAPLGFSAFQGGLWPPVPVSQLIKLVQR	not soluble
MSLDAISAATHSDPYFYYTRLRARGGLTYDCALRLWVASSAAAVAAVLDHPACQVRPSTEPVPQAIAGRPAGQLFGRLMRMNDGPRQRCPRAAIEPALQGLCTAGLETHLARWQPALAGPACAADLQRWQFVLPVALLASLLGVPAEQCETLARRTGEFVACFSPLSDQPRLQAADRAALELDAQMQALVQAPQHSPLLRQILDRSGELAPADLRANLAGLLAQTHDACAGLVGNSLVALLAAPAMQQRLRQEPGLLGDWLLERQRLDPPVQNTRRFVTAPCTVHGVELQAGETILVLLAAANQDPALAAITGSNPAHQGFSFGAGAHRCPGRELALGIVRCLLHALLQGPGLDALALDWQYQASVNGRIPLFSDRGEAEGHHHHHH	not soluble
MNITNEREDGEKMGSKNYTDVLIAGKIYTLGGLEEETYLQQVASYLNDKIAGLHRQDGFRKQPEDYQNVMTYLNIADDYFKEREHAGLLAVQKEELEKETYRLKHELVSTQMKLEAMRAELEKYKALETLEHSRGKEAEKEEQARK	soluble
MGSDKIHHHHHHMSFSGFEQFIGLVANRYGKPGTPHSEEQHSDYEAGTVLLGSETWHIRTARVTPTKPGAFVAFWMRNEQGEICPFDSSEACAGLLIFVQDESNFGVFRFTREQLEQQGITRSTKRPGKRGFRVYPSWSGNLNAQAKKTQAIQTPSFELLQ	not soluble
MGSDKIHHHHHHMEHLLEVNNLSVSFKVEEGEVQAVRNVSFNLKKGETLAIVGESGCGKSVLCKSLMRILPYNGYIKNGEVLLKSSDLVKKSEKEMEDIRGKNISMIFQDPMTSLNPTISIGKQIAEAVIIHQGISKSEAKKRAIELIELVGIDNPEKRFKQFPHHFSGGMRQRIVIAIALACNPDVLIADEPTTALDVTIQAQIIDLIKDLQHKIGLSIIFITHDLGVVATIADRIAVMYAGKIVEIGTVEDIFYDPRHPYTWGLLGSLPTLDSQDDYLYNIPGMPPNLLNPPKGDAFAIRNKNALKIDYEKEPPMFKINDTHSAATWLLHPDAPEVDVPVRVNCGRVISNE	not soluble
MRGSHHHHHHGMASMRILLSNDDGVHAPGIQTLAKALREFADVQVVAPDRNRSGASNSLTLESSLRTFTFDNGDIAVQMGTPTDCVYLGVNALMRPRPDIVVSGINAGPNLGDDVIYSGTVAAAMEGRHLGFPALAVSLNGYQHYDTAAAVTCALLRGLSREPLRTGRILNVNVPDLPLAQVKGIRVTRCGSRHPADKVIPQEDPRGNTLYWIGPPGDKYDAGPDTDFAAVDEGYVSVTPLHVDLTAHSAHDVVSDWLDSVGVGTQW	soluble
MPTTRHYDIVIIGGGIQGAAVAQAAAALGYNVLVLEKTALAAGTSSRSSKLIHGGLRYLESGQFGLVWESLKERAALLRLAPSLVRLQPFHIPIYDQTSRDTLTIRAGLSLYALLAGLSKGAGFHSIPRRRWGELDGLSTRGLRHVFQYWDAQTDDQALTRAIMHSASSLGVELHCPAEFIHARISGEICEIEFLENNQAYQCTASSLVNAAGPWVSQVAERISPAPPAYPVELVQGTHLILEGSLDKGCYYLESPQDRRAIFALPWKQHILLGTTETVFEGAPDKALPLVSEENYLLGCFRYYFPDHGATVRERFTGLRVLPVSRNNPFGRSRETHLQCDSPESPRIVGIYGGKLTVCRATARKVLHTLRPSLPVRIPKADISQLTLKLPLEHHHHHH	soluble
DIGCYTLGINKPLEGVDITICMGASVGVSNGLAHVLNNKIIATIGDSTFIHAGIPPLINAVYNHADFVLVILDNSTTGMTGHQPHPGTGFRGCGEAGKAVRIEDIVRGCGVEFVEVVNPYNVRKMVDVLRRALNHDGVAVVIARQPCAILWSRARRREGKIVTYKVTEDC	not soluble
MNRILIVEDEKNLARFIELELQHENYETAVANDGRAGLELALNEEWDAILLDLMLPHLNGVEVCRRVRQVKQTPIIMITARDSVIDRVSGLDHGADDYIVKPFAIEELLARLRSLLRRVENAEQSAKQTTLQYRNLIVEKENRIVKRDEEIIDLTKREYELLLTLMENVNIVLTREVLLNKVWGYETEVETNVVDVYVRYLRNKIDHPDEESYIQTVRGTGYVMRT	not soluble
MGSDKIHHHHHHMTSSRSRYLSVMGRELHVTEWGDEAAPALVMWHGLARTGRDFDTLAAHFCDRYRVVCPDTLGRGLSGWSRVPRRDYTLAAYMKHALELLGLLGIDRVTWIGTSMGGALGMLLAAGPLAGRMDRLVMNDIGPTLNPVAVERIRNYLAQHPSFRTMTEFEAYLRQVYRPYGFQTDLEWRRMTETSARRRGDGRITPHYDPAVMRVFAETAGDYEAWGEYDLITCPTLVLRGAESDLLLPEVAQEMTRRGPKARLVTVAGCGHAPSLNVPEQIGVIEDFLA	not soluble
